# pIC50 annotations
subject of test: Sodium channel protein type 9 subunit alpha (Homo sapiens)
test method notes: Compound effects were measured on a partially inactivated state of the sodium channel. Cells were clamped to a holding potential yielding 20 to 50% inactivation. To elicit sodium current, channels were activated by pulsing to -10 mV for 20 msec. This voltage protocol was repeated at a rate of 0.1 Hz throughout the experiment.
Scale: pIC50 equals -log10([C]), with [C] in mol/L.

// solved cases for pIC50 follow
>>> recorded_measurement("COc1cc(-c2cc(C)cc(F)c2)c(F)cc1-n1c(=O)ccc2cc(S(=O)(=O)Nc3ccon3)ccc21")
8.10
>>> recorded_measurement("COc1ccc(-c2cc(OC)c(-n3c(=O)ccc4cc(S(=O)(=O)Nc5ccon5)ccc43)cc2F)cc1Cl")
7.60
>>> recorded_measurement("COc1cc(-c2ccc(F)cc2)c(F)cc1-n1c(=O)ccc2cc(S(=O)(=O)Nc3ccon3)ccc21")
8.05

input: pIC50 for `COc1cc(Cl)ccc1-c1cc(OC)c(-n2c(=O)ccc3cc(S(=O)(=O)Nc4ccon4)ccc32)cc1F` ?
output: 7.80

input: pIC50 for `COc1cc(-c2cccc(C(F)F)c2)c(F)cc1-n1c(=O)ccc2cc(S(=O)(=O)Nc3ccon3)ccc21` ?
output: 7.46

input: pIC50 for `COc1cc(-c2ccc(-n3c(=O)ccc4cc(S(=O)(=O)Nc5cc(C)ncn5)ccc43)c(OC)c2)ccc1C` ?
output: 6.70

input: pIC50 for `COc1cc(-c2cccc(OC(F)F)c2)c(F)cc1-n1c(=O)ccc2cc(S(=O)(=O)Nc3ncccn3)ccc21` ?
output: 7.64

---

# pIC50 annotations
subject of test: Sodium channel protein type 9 subunit alpha (Homo sapiens, UniProt Q15858)
Sequence (Q15858 whole entry): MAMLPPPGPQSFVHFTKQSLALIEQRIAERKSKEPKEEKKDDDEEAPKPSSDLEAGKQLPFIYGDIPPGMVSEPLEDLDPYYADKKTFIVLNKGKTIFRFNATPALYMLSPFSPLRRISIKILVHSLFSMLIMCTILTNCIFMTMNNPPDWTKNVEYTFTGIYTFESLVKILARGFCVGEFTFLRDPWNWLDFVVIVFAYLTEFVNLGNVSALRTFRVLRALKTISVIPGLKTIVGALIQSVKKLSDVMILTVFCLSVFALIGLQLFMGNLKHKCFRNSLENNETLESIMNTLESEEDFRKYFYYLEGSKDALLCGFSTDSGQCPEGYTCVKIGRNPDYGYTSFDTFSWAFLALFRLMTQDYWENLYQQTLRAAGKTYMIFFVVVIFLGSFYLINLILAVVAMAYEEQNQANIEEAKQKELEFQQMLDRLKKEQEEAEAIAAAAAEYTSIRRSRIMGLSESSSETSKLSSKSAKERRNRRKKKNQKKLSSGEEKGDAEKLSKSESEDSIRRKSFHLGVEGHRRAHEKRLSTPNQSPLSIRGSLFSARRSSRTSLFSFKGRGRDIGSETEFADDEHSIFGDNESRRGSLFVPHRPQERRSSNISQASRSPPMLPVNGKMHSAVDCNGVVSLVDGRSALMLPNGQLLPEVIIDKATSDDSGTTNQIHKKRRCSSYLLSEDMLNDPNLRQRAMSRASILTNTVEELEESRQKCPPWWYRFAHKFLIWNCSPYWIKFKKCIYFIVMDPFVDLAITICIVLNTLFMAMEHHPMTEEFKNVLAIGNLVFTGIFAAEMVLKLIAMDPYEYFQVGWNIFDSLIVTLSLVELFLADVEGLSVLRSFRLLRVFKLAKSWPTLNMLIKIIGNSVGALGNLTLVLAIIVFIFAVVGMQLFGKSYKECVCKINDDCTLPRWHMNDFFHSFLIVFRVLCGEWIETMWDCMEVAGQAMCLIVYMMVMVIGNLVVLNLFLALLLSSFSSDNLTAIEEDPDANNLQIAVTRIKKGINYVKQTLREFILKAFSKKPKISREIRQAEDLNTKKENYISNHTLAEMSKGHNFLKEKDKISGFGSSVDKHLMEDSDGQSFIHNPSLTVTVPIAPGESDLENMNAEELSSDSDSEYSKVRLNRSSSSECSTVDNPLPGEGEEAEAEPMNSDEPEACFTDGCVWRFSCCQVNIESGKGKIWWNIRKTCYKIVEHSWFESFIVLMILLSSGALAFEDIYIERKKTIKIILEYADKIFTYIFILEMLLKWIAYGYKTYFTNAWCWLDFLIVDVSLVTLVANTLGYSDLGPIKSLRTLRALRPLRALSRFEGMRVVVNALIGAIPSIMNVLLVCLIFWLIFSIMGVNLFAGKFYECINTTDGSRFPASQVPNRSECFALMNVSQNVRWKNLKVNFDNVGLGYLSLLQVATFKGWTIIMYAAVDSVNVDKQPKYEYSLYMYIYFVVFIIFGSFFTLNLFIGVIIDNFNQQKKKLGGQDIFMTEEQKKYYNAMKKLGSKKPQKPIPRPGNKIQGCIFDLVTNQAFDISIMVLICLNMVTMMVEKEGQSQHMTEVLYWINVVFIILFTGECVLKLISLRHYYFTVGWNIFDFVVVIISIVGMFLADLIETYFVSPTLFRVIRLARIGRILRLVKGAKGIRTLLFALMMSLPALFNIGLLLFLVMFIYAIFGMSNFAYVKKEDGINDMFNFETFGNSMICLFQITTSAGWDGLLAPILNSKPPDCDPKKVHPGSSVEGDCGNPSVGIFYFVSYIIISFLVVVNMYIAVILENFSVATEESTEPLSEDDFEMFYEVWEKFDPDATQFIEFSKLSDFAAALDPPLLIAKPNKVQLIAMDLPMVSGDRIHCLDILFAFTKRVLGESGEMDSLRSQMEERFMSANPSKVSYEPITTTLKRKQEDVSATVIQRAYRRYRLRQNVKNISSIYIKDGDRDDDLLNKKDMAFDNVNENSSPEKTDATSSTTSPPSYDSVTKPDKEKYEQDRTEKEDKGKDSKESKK
test method notes: Compound effects were measured on a partially inactivated state of the sodium channel. Cells were clamped to a holding potential yielding 20 to 50% inactivation. To elicit sodium current, channels were activated by pulsing to -10 mV for 20 msec. This voltage protocol was repeated at a rate of 0.1 Hz throughout the experiment.
Scale: pIC50 equals -log10([C]), with [C] in mol/L.

>>> recorded_measurement("COc1cc(-c2ccccn2)c(F)cc1-n1c(=O)ccc2cc(S(=O)(=O)Nc3ccon3)ccc21")
6.05
>>> recorded_measurement("COc1cc(Cl)cc(-c2ccc(-n3c(=O)ccc4cc(S(=O)(=O)Nc5ccon5)ccc43)c(OC)c2)c1")
8.00
>>> recorded_measurement("COc1cc(-c2cc(Cl)cnc2OC)c(F)cc1-n1c(=O)ccc2cc(S(=O)(=O)Nc3ccon3)ccc21")
7.62

Moving on to the next molecule.
input: Enter reported pIC50 observed with Sodium channel protein type 9 subunit alpha (Homo sapiens, UniProt Q15858) for `COc1cc(C(F)(F)F)c(Cl)cc1-n1c(=O)ccc2cc(S(=O)(=O)Nc3ccncn3)ccc21`
output: 6.91

The origin of these recorded values is ChEMBL document CHEMBL3886193.
